- assaySystem: T1, rat NGF (rat, UniProt P25427 122-241)
- T1 construct: also called rN
- T1 sequence (P25427 122-241 limits assumed): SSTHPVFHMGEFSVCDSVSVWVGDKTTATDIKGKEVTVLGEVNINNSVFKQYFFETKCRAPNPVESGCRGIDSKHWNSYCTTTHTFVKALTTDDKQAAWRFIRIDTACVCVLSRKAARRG
- testDescription: SPR (Biacore T200), 100 nM mAb on NGF chip, similarity to parent mAb
readoutKind: Percent Similarity Score (KD on rN) (%)
Give a bare numeral; the unit % is implied.

Before answering, review these 2 worked examples.
binder	Percent Similarity Score (KD on rN) [%]
can9L12VH_P110A (antibody, V domains shown) VH: EVQLVESGGDLVKPGGSLRLSCVASGFTFSSHGMHWVRQSPGKGLQWVAVINSGGSSTYYTDAVKGRFTISRDNAKNTVYLQMNSLRAEDTAMYYCAKESVGGWEQLVGAHFDYWGQGTLVIVSS VL: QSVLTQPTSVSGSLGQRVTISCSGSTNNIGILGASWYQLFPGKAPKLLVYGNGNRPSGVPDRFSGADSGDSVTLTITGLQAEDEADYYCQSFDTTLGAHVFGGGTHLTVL	2.6
can48L2VL_T26A (antibody, V domains shown, CDR scanning mutant of ZTS-842 (48L2)) VH: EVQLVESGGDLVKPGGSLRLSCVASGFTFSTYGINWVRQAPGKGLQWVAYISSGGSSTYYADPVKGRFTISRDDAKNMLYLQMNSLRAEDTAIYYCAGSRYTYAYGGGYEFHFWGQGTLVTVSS VL: QAVLNQPASVSGALGQKVTISCSGSAMDIDIFGVSWYQQLPGKAPKLLVDSDGDRPSGIPDRFSGSRSGNSGTLTITGLQAEDEADYHCQSGDSTLGALAIFGGGTHVTVL	98

With those in mind, consider the next binder.
The binder listed as can9L12VL_G51A (antibody, V domains shown) VH: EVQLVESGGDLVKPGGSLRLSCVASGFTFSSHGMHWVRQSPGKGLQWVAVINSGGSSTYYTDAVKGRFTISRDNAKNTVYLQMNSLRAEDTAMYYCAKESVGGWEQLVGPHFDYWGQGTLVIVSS VL: QSVLTQPTSVSGSLGQRVTISCSGSTNNIGILGASWYQLFPGKAPKLLVYANGNRPSGVPDRFSGADSGDSVTLTITGLQAEDEADYYCQSFDTTLGAHVFGGGTHLTVL shows Percent Similarity Score (KD on rN) equal to 99.9

Cited source for all entries: patent US20210221899A1
